- Tested target: UniProt Q9HC97
- Method notes: Agonist activity at GPR35 receptor in human HT-29 cells assessed as shift in resonant wavelength of biosensor stimulation after 10 mins by dynamic mass redistribution assay relative to control
- Type: functional, cell-based
# note: boundary value 300 picometer maps to condition not met; Efficacy below it maps to condition met

-- ask Just wondering, is Efficacy of O=C(O)c1cc(O)c(=O)c2c(O)c(O)ccc2c1 [7-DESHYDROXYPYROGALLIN-4-CARBOXYLIC ACID] below 300 picometer?
-- reply condition met

-- ask Check if Efficacy falls below 300 picometer for N#C/C(=C\c1ccc(O)cc1)C(=O)O [alpha-CYANO-4-HYDROXYCINNAMIC ACID] .
-- reply condition not met

-- ask Please determine if O=c1c(O)c(-c2ccc(O)cc2O)oc2cc(O)cc(O)c12 [MORIN] is below 300 picometer in terms of Efficacy.
-- reply condition met

-- ask Here's an entry: O=c1cc(-c2ccc(O)c(O)c2)oc2cc(O)cc(O)c12 [LUTEOLIN] . Is its Efficacy below 300 picometer?
-- reply condition met

-- ask Hello, I'm reviewing records and need to know if Efficacy of CCCCCc1c2c(cc(O)c1C(=O)O)OC(=O)c1c(cc(OC)cc1C(=O)CCCC)O2 [LOBARIC ACID] is below 300 picometer. Could you check?
-- reply condition not met

-- ask Identify whether the molecule CC(C)=CCC1=C(O)C(=O)c2ccccc2C1=O [LAPACHOL] records Efficacy below 300 picometer.
-- reply condition not met

-- ask Hi there! Is Efficacy for O=c1c(O)c(-c2cc(O)c(O)c(O)c2)oc2cc(O)cc(O)c12 [MYRICETIN] below 300 picometer, do you know?
-- reply condition met

-- ask I'd appreciate it if you could check whether O=c1c(O)c(-c2ccc(O)c(O)c2)oc2cc(O)cc(O)c12 [QUERCETIN] has Efficacy smaller than 300 picometer.
-- reply condition met

-- ask A record lists O=c1oc2c(O)c(O)cc3c(=O)oc4c(O)c(O)cc1c4c23 [ELLAGIC ACID] . Is its Efficacy below 300 picometer?
-- reply condition not met

-- ask Hello, I'm reviewing records and need to know if Efficacy of O=C(O)c1cccnc1Nc1cccc(C(F)(F)F)c1 is below 300 picometer. Could you check?
-- reply condition met

-- ask Please determine if Cc1c(C(=O)O)sc2c(Br)csc12 is below 300 picometer in terms of Efficacy.
-- reply condition met

-- ask Given CCCOc1ccccc1-c1nc2[nH]nnc2c(=O)[nH]1 , is recorded Efficacy strictly lower than 300 picometer?
-- reply condition met

-- ask Hello, I'm reviewing records and need to know if Efficacy of O=c1cc(-c2ccccc2)oc2cc(O)c(O)c(O)c12 [BAICALEIN] is below 300 picometer. Could you check?
-- reply condition met

-- ask hey, is Efficacy for CC(=O)NCCc1ccc(O)c(-c2c(O)c(O)c3c(c2O)C(=O)c2c(cc(O)c(C(=O)O)c2C(=O)O)C3=O)c1 [LACCACID ACID A] lower than 300 picometer or not?
-- reply condition met

-- ask # strict comparison: is reported Efficacy < 300 picometer? input = O=C1C=C2CC3(O)COc4c(ccc(O)c4O)C3=C2C=C1O (stereo not given) [HEMATEIN]
-- reply condition not met

----------
I'd be grateful if you could share measured EC50 for these entries.
- Tested target: G-protein coupled receptor 35 (Homo sapiens, UniProt Q9HC97)
- Sequence (Q9HC97 whole entry, the tested form may be a part): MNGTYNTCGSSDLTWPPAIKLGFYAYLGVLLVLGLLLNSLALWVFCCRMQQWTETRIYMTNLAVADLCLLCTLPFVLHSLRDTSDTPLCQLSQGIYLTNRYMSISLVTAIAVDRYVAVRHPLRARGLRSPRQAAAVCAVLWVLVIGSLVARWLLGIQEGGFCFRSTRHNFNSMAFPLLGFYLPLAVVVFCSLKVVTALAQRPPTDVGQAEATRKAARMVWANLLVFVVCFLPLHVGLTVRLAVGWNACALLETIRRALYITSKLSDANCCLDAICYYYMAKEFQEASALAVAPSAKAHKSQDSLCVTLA
- Method notes: Agonist activity at GPR35 receptor in human U2OS cells coexpressing Gal4-VP16-TEV assessed as beta arrestin translocation after 5 hrs by beta lactamase reporter gene assay
- Assay type: functional, cell-based
A number alone suffices; assume µM.

-- ask Value lookup for EC50; key = CCCCCc1c2c(cc(O)c1C(=O)O)OC(=O)c1c(cc(OC)cc1C(=O)CCCC)O2
-- reply 17.6

-- ask Item O=c1c(O)c(-c2cc(O)c(O)c(O)c2)oc2cc(O)cc(O)c12 has what recorded EC50?
-- reply 14.7

-- ask Which EC50 is listed for CC(C)=CCC1=C(O)C(=O)c2ccccc2C1=O ?
-- reply 47.9

-- ask # query: EC50 of entry N#C/C(=C\c1ccc(O)cc1)C(=O)O [alpha-CYANO-4-HYDROXYCINNAMIC ACID]
-- reply 70.7

-- ask Requested read-out: EC50. Entry: O=c1oc2c(O)c(O)cc3c(=O)oc4c(O)c(O)cc1c4c23
-- reply 2.96

-- ask Consider the compound shown here: O=c1c(O)c(-c2ccc(O)c(O)c2)oc2cc(O)cc(O)c12 What is its recorded EC50?
-- reply 5.93

-- ask Query (compound): O=C(O)c1cc(O)c(=O)c2c(O)c(O)ccc2c1 [7-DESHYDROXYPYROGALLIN-4-CARBOXYLIC ACID] ; field requested: EC50
-- reply 12.4

-- ask Name the reported EC50 value associated with the compound O=C1C=C2CC3(O)COc4c(ccc(O)c4O)C3=C2C=C1O (stereo not drawn)
-- reply 4.7

-- ask Name the recorded EC50 for O=c1cc(-c2ccccc2)oc2cc(O)c(O)c(O)c12 .
-- reply 22.7

-- ask Reported EC50, compound O=c1cc(-c2ccc(O)c(O)c2)oc2cc(O)cc(O)c12 : ____
-- reply 3.2

-- ask Quick one: EC50 of Cc1c(C(=O)O)sc2c(Br)csc12 ?
-- reply 17.6

-- ask Recorded EC50 of O=c1c(O)c(-c2ccc(O)cc2O)oc2cc(O)cc(O)c12 , please.
-- reply 11.2

-- ask Quick one: EC50 for CC(=O)NCCc1ccc(O)c(-c2c(O)c(O)c3c(c2O)C(=O)c2c(cc(O)c(C(=O)O)c2C(=O)O)C3=O)c1 ?
-- reply 51.5
